target: recombinant soluble 1957 H2 HA (A/Japan/305+/1957) (Influenza A virus A/Japan/305+/1957 (H2N2)); test: ELISA, supernate
quantity-name: OD (OD)
# number only, unit OD dropped from output

Query: Indicate the recorded OD value for this binder: mAb 2K11 (antibody, V domains shown) VH: EVQLVESGGGLVQPGGSLRLSCVASTFSLINYWMTWVRQAPGKGLEWVANIKQDGFEKYYVDSVKGRFTISRDNAKNSLYLQMNSLRVEDTAVYYCARQGSYADTYFYHYGMDVWGQGTTVTVS VL: QSALTQPPSVSGAPGQRVTISCTGSSSNIGAGYDAYWYQQLPGTAPKLLIYGNSNRLSGVPDRFSASKSGTSASLAITGLQAEDEADYYCQSYDSSLSIFGGGTKLTVLR
Response: 0.08
